The measurements presented in this section are drawn from PubChem BioAssay.

assay: sensitizers of A549 cells to miR-34 induction, primary screen, imaging, A549 dox-inducible miR-34, nuclei and caspase counts (AID 1347080); settings: A549 miR-34 inducible, Hoechst nuclei count, 48 h; measured here: total cells with miR-34 induction; stronger effect = lower value; also: test concentration not given here
measured-metric: cell count
Answers are plain numbers.

Items follow; give cell count for each.
1. NCCC(O)C(=O)N[C@@H]1C[C@H](N)[C@@H](OC2O[C@H](CN)[C@@H](O)[C@H](O)[C@H]2N)[C@H](OC2O[C@H](CO)C(O)[C@H]2O)[C@H]1O (stereo not given in full)
2. NC(=NCCC[C@H](N)C(=O)O)N[N+](=O)[O-]
3. CCCCC/C=C\C/C=C\C/C=C\C/C=C\CCCC(=O)NCCCl
4. C[C@@H]1O[C@@H](O[C@@H]2C=C3CCC4C(CC[C@]5(C)[C@@H](c6ccc(=O)oc6)CC[C@]45O)[C@@]3(C)CC2)[C@H](O)[C@H](O)[C@H]1O (stereo not given in full)

1: 7990; 2: 10000; 3: 6340; 4: 696

For each of the compounds below, note its cell count.
1. O=c1ccc2cc(OC3O[C@H](CO)[C@@H](O)[C@H](O)[C@H]3O)c(O)cc2o1 (stereo not given in full)
2. NCC(CP(=O)(O)O)c1ccc(Cl)cc1 (stereo not given)
3. C[C@]12Cc3cn[nH]c3C[C@@H]1CC[C@@H]1[C@@H]2CC[C@@]2(C)[C@H]1CC[C@]2(C)O
4. O=C(CCCN1CCC(n2c(=O)[nH]c3ccccc32)CC1)c1ccc(F)cc1
5. Oc1ccc2c3c1O[C@H]1c4[nH]c5ccccc5c4C[C@@]4(O)[C@@H](C2)N(CC2CC2)CC[C@]314
6. CCC1(CC)C(=O)C=CNC1=O
7. OC[C@H]1O[C@@H](n2cnc3cc(Cl)c(Cl)cc32)C(O)[C@H]1O (stereo not given in full)
8. C=CCN1C[C@H](C)N([C@H](c2ccc(C(=O)N(CC)CC)cc2)c2cccc(OC)c2)C[C@H]1C

1: 9360; 2: 9470; 3: 8690; 4: 7580; 5: 8700; 6: 8380; 7: 1540; 8: 8480

For every record below, what is its cell count?
1. c1ccc2c3c([nH]c2c1)CNCC3
2. COC1=CC(=O)OC(/C=C/c2ccccc2)C1 (stereo not given)
3. NC(=O)c1cc([N+](=O)[O-])cc([N+](=O)[O-])c1
4. CCCC(=O)N[C@H]1CCOC1=O

7470
4840
10800
6040

Look at each compound and report its cell count.
1. CCCC[N+]1(C)[C@@H]2CC(OC(=O)[C@H](CO)c3ccccc3)C[C@H]1[C@@H]1O[C@@H]12 (stereo not given in full)
2. CNC1CC(c2ccc(Cl)c(Cl)c2)c2ccccc21 (stereo not given)

1. 9520
2. 5010

Your task in this section: give cell count for each listed record.
1. c1ccc2cc(CC3=NCCN3)ccc2c1
2. CC(=O)NBr
3. C=C/C=C\CC1=C[C@@H](OC(=O)[C@@H]2[C@@H](C=C(C)C)C2(C)C)CC1=O
4. CN=C(NS(=O)(=O)c1ccc(Cl)cc1)N1C[C@H](c2ccccc2)C(c2ccc(Cl)cc2)=N1
5. CCCC[C@H]1C(=O)O[C@H](C)[C@H](NC(=O)c2cccc(NC=O)c2OC)C(=O)O[C@@H](C)[C@@H]1OC(=O)CC(C)C
6. Fc1cc(F)c2c(c1)[C@H]1C=CC[C@@H]1C(c1cccnc1)N2 (stereo not given in full)
7. Cc1ncc2n1-c1ccc(Cl)cc1C(c1ccccc1F)=NC2
8. CCOC(=O)c1cncn1[C@H](C)c1ccccc1

1. 11100
2. 10500
3. 8080
4. 5510
5. 869
6. 1650
7. 6900
8. 9210

Would you mind giving cell count for every compound in the list below?
1. CNC(C)C(O)c1ccccc1 (stereo not given)
2. O=[N+]([O-])/C=C/c1ccc2c(c1)OCO2
3. COc1ccc(C(=O)c2c(C)n(CCN3CCOCC3)c3cc(I)ccc23)cc1

[10800, 2000, 2860]

Form field: reported cell count of CCC(=O)OC(Cc1ccccc1)(c1ccccc1)C(C)CN(C)C (stereo not given)
9110
